# Test Parameters: in THF, 293.15 K
Metric Name: solubility (mole fraction)
Reply with just the number.

State the recorded solubility (mole fraction) for this entry: O=[N+]([O-])c1ccc(S(=O)(=O)[O-])cc1.[Na+]
0.000117

---

# Test Parameters: in cyclohexanone, 318.15 K
Metric Name: solubility (mole fraction)

Entry O=[N+]([O-])c1ccc(S(=O)(=O)[O-])cc1.[Na+] : reported solubility (mole fraction) = ?
0.000991

---

# Test Parameters: in acetone, 313.15 K
Metric Name: solubility (mole fraction)
Reply with the value as a number alone.

Which solubility (mole fraction) is listed for O=[N+]([O-])c1ccc(S(=O)(=O)[O-])cc1.[Na+] ?
0.0258

---

# Test Parameters: in n-butanol, 303.15 K
Metric Name: solubility (mole fraction)
Number only, please.

For O=[N+]([O-])c1ccc(S(=O)(=O)[O-])cc1.[Na+] , what is its reported solubility (mole fraction)?
0.000699

---

# Test Parameters: in ethanol, 323.15 K
Metric Name: solubility (mole fraction)
Lab note: write the figure by itself, no unit.

Any idea what its solubility (mole fraction) is? The molecule is O=[N+]([O-])c1ccc(S(=O)(=O)[O-])cc1.[Na+]
0.0026

---

# Test Parameters: in ethanol, 303.15 K
Metric Name: solubility (mole fraction)
Answer field: number only, no words.

Please look up its solubility (mole fraction): O=[N+]([O-])c1ccc(S(=O)(=O)[O-])cc1.[Na+]
0.00164

---

# Test Parameters: in THF, 308.15 K
Metric Name: solubility (mole fraction)

Quick one: solubility (mole fraction) for O=[N+]([O-])c1ccc(S(=O)(=O)[O-])cc1.[Na+] ?
0.000132

---

# Test Parameters: in cyclohexanone, 313.15 K
Metric Name: solubility (mole fraction)
Number only, please.

Which solubility (mole fraction) value belongs to O=[N+]([O-])c1ccc(S(=O)(=O)[O-])cc1.[Na+] ?
0.000967

---

# Test Parameters: in ethyl acetate, 283.15 K
Metric Name: solubility (mole fraction)
Form: value (number only, do not type unit).

Query: solubility (mole fraction); subject: O=[N+]([O-])c1ccc(S(=O)(=O)[O-])cc1.[Na+]
8.84e-05

---

# Test Parameters: in n-butanol, 308.15 K
Metric Name: solubility (mole fraction)
Respond numerically, and do not add a unit to the figure.

Item under review: O=[N+]([O-])c1ccc(S(=O)(=O)[O-])cc1.[Na+] . Reported solubility (mole fraction)?
0.000798

---

# Test Parameters: in ethanol, 298.15 K
Metric Name: solubility (mole fraction)
Give a plain numeric answer without units written out.

What does the data say about its solubility (mole fraction)? Entry: O=[N+]([O-])c1ccc(S(=O)(=O)[O-])cc1.[Na+]
0.00147

---

# Test Parameters: in THF, 303.15 K
Metric Name: solubility (mole fraction)

Requested read-out: solubility (mole fraction). Entry: O=[N+]([O-])c1ccc(S(=O)(=O)[O-])cc1.[Na+]
0.000127

---

# Test Parameters: in n-butanol, 283.15 K
Metric Name: solubility (mole fraction)
Could you respond with only the numeric value?

Which solubility (mole fraction) reading was recorded for the compound O=[N+]([O-])c1ccc(S(=O)(=O)[O-])cc1.[Na+] ?
0.000318

---

# Test Parameters: in acetone, 288.15 K
Metric Name: solubility (mole fraction)

Report solubility (mole fraction) for O=[N+]([O-])c1ccc(S(=O)(=O)[O-])cc1.[Na+] please.
0.014

---

# Test Parameters: in ethyl acetate, 323.15 K
Metric Name: solubility (mole fraction)
Respond using a number only.

# solubility (mole fraction) lookup, item O=[N+]([O-])c1ccc(S(=O)(=O)[O-])cc1.[Na+]
0.000193

---

# Test Parameters: in n-butanol, 288.15 K
Metric Name: solubility (mole fraction)
Respond using a number only.

Recorded solubility (mole fraction) for O=[N+]([O-])c1ccc(S(=O)(=O)[O-])cc1.[Na+] , please?
0.000405

---

# Test Parameters: in ethanol, 293.15 K
Metric Name: solubility (mole fraction)
Just the number, please, no unit after it.

What value of solubility (mole fraction) has been reported for the following molecule? O=[N+]([O-])c1ccc(S(=O)(=O)[O-])cc1.[Na+]
0.00133

---

# Test Parameters: in ethanol, 313.15 K
Metric Name: solubility (mole fraction)
Response field accepts a number only; no unit should be typed.

Please look up its solubility (mole fraction): O=[N+]([O-])c1ccc(S(=O)(=O)[O-])cc1.[Na+]
0.00204

---

# Test Parameters: in n-butanol, 298.15 K
Metric Name: solubility (mole fraction)
Please state the value as a number alone, without comment.

What value of solubility (mole fraction) has been reported for the following compound? O=[N+]([O-])c1ccc(S(=O)(=O)[O-])cc1.[Na+]
0.000597

---

# Test Parameters: in n-butanol, 318.15 K
Metric Name: solubility (mole fraction)
API doc: respond with a numeric literal and nothing else, no unit.

// query solubility (mole fraction) value for entry O=[N+]([O-])c1ccc(S(=O)(=O)[O-])cc1.[Na+]
0.00111
